- test protocol: Cytotoxicity in African green monkey Vero cells
- Type: cell-based
- condition set: chlorocebus sabaeus
measurement type: CC50

structure_string=CO/N=C1/C(=O)N(Cc2cn(CC(=O)N3CCN(c4cc5c(cc4F)c(=O)c(C(=O)O)cn5C4CC4)CC3)nn2)c2ccc(F)cc21 reported_value="64 µg/mL"
structure_string=O=C1C(=O)N(Cc2cn(CC(=O)N3CCN(c4cc5c(cc4F)c(=O)c(C(=O)O)cn5C4CC4)CC3)nn2)c2c(F)cccc21 reported_value="8 µg/mL"
structure_string=CCO/N=C1/C(=O)N(Cc2cn(CC(=O)N3CCN(c4cc5c(cc4F)c(=O)c(C(=O)O)cn5C4CC4)CC3)nn2)c2ccc(C)cc21 reported_value="32 µg/mL"
structure_string=CO/N=C1/C(=O)N(Cc2cn(CC(=O)N3CCN(c4cc5c(cc4F)c(=O)c(C(=O)O)cn5C4CC4)CC3)nn2)c2ccccc21 reported_value="128 µg/mL"
structure_string=CCO/N=C1/C(=O)N(Cc2cn(CC(=O)N3CCN(c4cc5c(cc4F)c(=O)c(C(=O)O)cn5C4CC4)CC3)nn2)c2ccc(F)cc21 reported_value="8 µg/mL"
structure_string=O=C1C(=O)N(Cc2cn(CC(=O)N3CCN(c4cc5c(cc4F)c(=O)c(C(=O)O)cn5C4CC4)CC3)nn2)c2ccc(F)cc21 reported_value="32 µg/mL"
structure_string=Cc1ccc2c(c1)C(=O)C(=O)N2Cc1cn(CC(=O)N2CCN(c3cc4c(cc3F)c(=O)c(C(=O)O)cn4C3CC3)CC2)nn1 reported_value="16 µg/mL"
